biological target: PLK1 (Homo sapiens); assay: In vitro PLK1 ELISA assay (biochemical); design: purchased Cell Signalling 7728; details: ELISA, CHK2-derived peptide substrate; read-out: PLK1 IC50 (μM) biochemical assay
Sequence (P53350 whole entry): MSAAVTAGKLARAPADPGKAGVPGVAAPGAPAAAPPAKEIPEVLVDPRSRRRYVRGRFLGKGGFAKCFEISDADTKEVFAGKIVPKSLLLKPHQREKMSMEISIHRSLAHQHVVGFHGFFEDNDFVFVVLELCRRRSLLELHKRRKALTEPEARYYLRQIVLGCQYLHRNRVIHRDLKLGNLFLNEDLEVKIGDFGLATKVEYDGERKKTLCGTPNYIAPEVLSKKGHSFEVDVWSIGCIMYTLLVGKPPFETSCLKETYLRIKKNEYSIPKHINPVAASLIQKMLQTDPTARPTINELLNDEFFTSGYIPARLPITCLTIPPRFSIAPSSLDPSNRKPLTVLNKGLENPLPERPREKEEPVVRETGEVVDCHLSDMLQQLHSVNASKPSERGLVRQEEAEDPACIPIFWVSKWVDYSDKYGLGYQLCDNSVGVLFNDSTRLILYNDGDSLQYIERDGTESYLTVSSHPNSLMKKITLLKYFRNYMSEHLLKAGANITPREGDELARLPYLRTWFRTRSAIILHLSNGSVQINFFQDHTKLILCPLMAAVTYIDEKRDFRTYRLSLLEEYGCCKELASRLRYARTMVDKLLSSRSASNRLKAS
Consider the following compounds and their measured IC50 readings.

{"COMPOUND": "Cc1cnc(Nc2ccc(N3CCN(C)CC3)cc2)nc1Nc1ccc2c(c1)N(CCCF)C(=O)CO2 [compound 188]", "OBS_VALUE": "0.5 to 5 µM"}
{"COMPOUND": "CCC(CC)N1C(=O)COc2ccc(Nc3nc(Nc4cccc(N5CCN(C)CC5)c4)ncc3F)nc21 [compound 134]", "OBS_VALUE": "< 0.5 µM"}

Exercise: Report IC50 for CC(C)Oc1ccc(N2CCN(C)CC2)cc1Nc1ncc(F)c(Nc2ccc3c(n2)NC(=O)CO3)n1 [compound 30] please.
Key: < 0.5 µM

Exercise: Value lookup for IC50; key = CC(C)Oc1cc(Nc2ncc(F)c(Nc3ccc4c(n3)NC(=O)CO4)n2)cc(N2CCN(C)CC2)c1 [compound 25]
Key: < 0.5 µM

Exercise: IC50 lookup needed for Cc1cc(Nc2ncc(C)c(Nc3ccc4c(c3)N(Cc3ccccn3)C(=O)C(F)(F)O4)n2)ccc1N1CC2CC1CN2C (stereo not drawn) [compound 139] , thanks.
Key: ≥ 10 µM

Exercise: What measured IC50 goes with CCCN1CCOc2ccc(Nc3nc(Nc4ccc(N5CC6CC5CN6S(C)(=O)=O)c(C)c4)ncc3F)nc21 (stereo not drawn) [compound 28] ?
Key: 0.5 to 5 µM

Exercise: Requested field: IC50. Item: CN1CCN(c2cccc(Nc3ncc(F)c(N(CC4CC4)c4ccc5c(n4)NCCO5)n3)c2)CC1 [compound 53]
Key: 0.5 to 5 µM

Exercise: Item under review: Cc1cnc(Nc2cccc(N3CCN(C)CC3)c2)nc1Nc1ccc2c(n1)N(CC1CCC1)C(=O)CO2 [compound 130] . Reported IC50?
Key: < 0.5 µM

Exercise: I'd like to know its IC50. The compound in question is Cc1cnc(Nc2cccc(N3CCN(C)CC3)c2)nc1Nc1ccc2c(n1)NC(=O)CO2 [compound 51]
Key: < 0.5 µM

Exercise: I would be grateful if you could share the reported IC50 for CC(C)c1cc(Nc2ncc(F)c(Nc3ccc4c(n3)NC(=O)CO4)n2)cc(N2CCN(C)CC2)c1 [compound 44] .
Key: < 0.5 µM

Exercise: Quick one: IC50 for Cc1ccc(Nc2ncc(F)c(Nc3ccc4c(n3)NCCO4)n2)cc1N1CC2CC1CN2C (stereo not drawn) [compound 36] ?
Key: < 0.5 µM

Exercise: What value of IC50 has been reported for the following compound? CC(C)Oc1ccc(N2CCN(C)CC2)cc1Nc1ncc(F)c(Nc2ccc3c(n2)NCCO3)n1 [compound 23]
Key: < 0.5 µM

Exercise: What IC50 value was documented for this compound, COc1cnc(Nc2cccc(N3CCN(C)CC3)c2)nc1Nc1ccc2c(n1)NC(=O)CO2 [compound 56] ?
Key: < 0.5 µM

Exercise: Param item = CC(C)c1ccc(N2CCN(C)CC2)cc1Nc1ncc(F)c(Nc2ccc3c(n2)NC(=O)CO3)n1 [compound 43] ; retrieve measured IC50.
Key: < 0.5 µM

Exercise: Would you mind telling me what IC50 value was observed for CCCN1C(=O)COc2ccc(Nc3nc(Nc4ccc(N5CC6CC5CN6S(C)(=O)=O)c(C)c4)ncc3F)nc21 (stereo not drawn) [compound 31] ?
Key: ≥ 10 µM

All values here come from patent US9040527B2.
